molecular target: Caspase-3 (Homo sapiens, UniProt P42574); assay type: functional;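 note: Dose-response selectivity test against caspase-3 for candidate inhibitors of sentrin-specific proteases (SENPs)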
Sequence (P42574 29-175 limits assumed): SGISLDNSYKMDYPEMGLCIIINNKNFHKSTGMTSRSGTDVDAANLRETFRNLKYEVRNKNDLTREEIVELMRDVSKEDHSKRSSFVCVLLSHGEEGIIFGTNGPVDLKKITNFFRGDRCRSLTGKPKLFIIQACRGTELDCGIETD
Sequence (P42574 176-277 limits assumed): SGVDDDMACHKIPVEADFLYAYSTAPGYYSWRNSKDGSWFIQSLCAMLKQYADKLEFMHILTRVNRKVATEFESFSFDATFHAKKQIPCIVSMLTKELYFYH
The source made the active and inactive calls.
Measurement Kind: IC50

Consider the following illustrative entries.
# Smiles Structure, IC50
rows = [
    ("COc1ccc(-c2cc(-c3ccc(C)cc3)[nH]n2)c(O)c1", "76.5 µM (active)"),
    ("Cc1cc(C)nc(Nc2nc(-c3ccccc3)cs2)n1", "> 100 µM (inactive)"),
]

With those in mind, consider the next compound.
stdin: Fill in: IC50 on Caspase-3 (Homo sapiens, UniProt P42574), entry "Cc1ccc(NC2=C/C(=N/S(=O)(=O)c3cccs3)c3ccccc3C2=O)cc1"
stdout: 2.1 µM (active)
